# Test system: Mus musculus
# Protocol: Reduction in food intake in wild type mouse at 10 mg/kg, po after 4 hrs
# Assay type: functional
Assignment: determine reported inhibition in vivo at 10 mg/kg for the given molecules.
One number for each entry, in %.

Some entries whose results are on file:
Cc1cc2c(cc1Cl)C1(CCN(C(=O)[C@@H]3CCN(C(C)(C)C)C[C@H]3c3ccc(F)cc3F)CC1)C[C@@H]2C(C)(C)c1ncnn1C	46
Cc1cc2c(cc1Cl)C1(CCN(C(=O)[C@@H]3CN(C(C)(C)C)C[C@H]3c3ccc(F)cc3F)CC1)C[C@@H]2C(C)(C)c1ncnn1C	47
Cc1cc2c(cc1Cl)C1(CCN(C(=O)[C@@H]3CC(N(C)C4CCOCC4)C[C@H]3c3ccc(F)cc3F)CC1)C[C@@H]2C(C)(C)c1ncnn1C (some centres undefined)	46

Pending molecule:
Q: Quick one: inhibition in vivo at 10 mg/kg of "Cc1cc2c(cc1Cl)C1(CCN(C(=O)[C@@H]3CN(C4CCOCC4)C[C@H]3c3ccc(F)cc3F)CC1)C[C@@H]2C(C)(C)c1ncnn1C" ?
A: 40

---

# Assayed system: Melanocortin receptor 4 (Homo sapiens, UniProt P32245)
# Sequence (P32245 whole entry): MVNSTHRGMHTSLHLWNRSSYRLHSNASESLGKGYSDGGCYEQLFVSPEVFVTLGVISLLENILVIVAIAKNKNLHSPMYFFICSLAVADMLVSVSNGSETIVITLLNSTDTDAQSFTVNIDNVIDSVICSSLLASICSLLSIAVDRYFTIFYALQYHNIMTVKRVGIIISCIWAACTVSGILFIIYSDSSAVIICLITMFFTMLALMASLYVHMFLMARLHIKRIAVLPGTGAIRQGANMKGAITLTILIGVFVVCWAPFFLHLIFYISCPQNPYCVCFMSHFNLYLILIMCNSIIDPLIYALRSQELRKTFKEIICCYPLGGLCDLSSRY
# Protocol: Agonist activity at human MC4 receptor
Assignment: determine reported EC50 for the given compounds.
Answers are plain numbers, in nM.

Some entries whose results are on file:
Cc1cc2c(cc1Cl)C1(CCN(C(=O)[C@@H]3CN(C(C)(C)C)C[C@H]3c3ccc(F)cc3F)CC1)C[C@@H]2C(C)(C)c1ncnn1C	0.23
Cc1nnc(C(C)(C)[C@H]2CC3(CCN(C(=O)[C@@H]4CN(C(C)(C)C)C[C@H]4c4ccc(F)cc4F)CC3)c3cc(Cl)c(C)cc32)o1	2.3

Q: Quick one: EC50 of "Cc1cc2c(cc1Cl)C1(CCN(C(=O)[C@@H]3CCN(C(C)(C)C)C[C@H]3c3ccc(F)cc3F)CC1)C[C@@H]2C(C)(C)c1ncnn1C" ?
A: 2.4

---

# Tested on: Mus musculus
# Protocol: Reduction in food intake in wild type mouse at 20 mg/kg, po after 18 hrs
# Assay type: functional
Attribute measured: inhibition in vivo at 20 mg/kg (%)
Give bare numbers, in %.

Some entries whose results are on file:
Cc1cc2c(cc1Cl)C1(CCN(C(=O)[C@@H]3CN(C(C)(C)C)C[C@H]3c3ccc(F)cc3F)CC1)C[C@@H]2C(C)(C)c1ncnn1C	17
Cc1cc2c(cc1Cl)C1(CCN(C(=O)[C@@H]3CCN(C(C)(C)C)C[C@H]3c3ccc(F)cc3F)CC1)C[C@@H]2C(C)(C)c1ncnn1C	17
Cc1cc2c(cc1Cl)C1(CCN(C(=O)[C@@H]3CN(C4CCOCC4)C[C@H]3c3ccc(F)cc3F)CC1)C[C@@H]2C(C)(C)c1ncnn1C	13

Pending compound:
Q: Quick one: inhibition in vivo at 20 mg/kg of Cc1cc2c(cc1Cl)C1(CCN(C(=O)[C@@H]3CC(N(C)C4CCOCC4)C[C@H]3c3ccc(F)cc3F)CC1)C[C@@H]2C(C)(C)c1ncnn1C (some centres undefined) ?
A: 18

---

Assignment: determine reported pEC50 for the given compounds.
# Protocol: Agonist activity at human MC1b receptor
# Assay type: functional
One number for each entry, as −log10 of the molar value.

Some entries whose results are on file:
Cc1cc2c(cc1Cl)C1(CCN(C(=O)[C@@H]3CN(C(C)(C)C)C[C@H]3c3ccc(F)cc3F)CC1)CC2C(C)(C)c1cnn[nH]1 (stereo partly drawn)	5.98
Cc1cc2c(cc1Cl)C1(CCN(C(=O)[C@@H]3CN(C4CCOCC4)C[C@H]3c3ccc(F)cc3F)CC1)C[C@@H]2C(C)(C)c1ncnn1C	6.15

Pending compound:
Q: Quick one: pEC50 of "Cc1nnc(C(C)(C)[C@H]2CC3(CCN(C(=O)[C@@H]4CN(C(C)(C)C)C[C@H]4c4ccc(F)cc4F)CC3)c3cc(Cl)c(C)cc32)o1" ?
A: 5.94
